meta.source: patent US4593104A

system: Sorgh. bicol.; assay: preemergence treatment in the greenhouse, % damage; format: in vivo, Sorghum bicolor; conditions: 2.0 kg/ha
# cutoff 10% applies to % damage; >= gives class 1, < gives class 0

Ask: hey, is % damage for this one >= 10%? Cc1ccn(CN(C(=O)CCl)c2ccccc2C(C)C)n1
Result: class 1

Ask: Please tell me: is the molecule CCc1cccc(C)c1N(Cn1nc(C)c(Cl)c1C)C(=O)CCl at or over 10% in terms of % damage?
Result: class 1

Ask: I'd appreciate it if you could say whether Cc1cccc(C)c1N(Cn1nc(C)c(Cl)c1C)C(=O)CCl has % damage at least equal to 10%.
Result: class 1

Ask: Entry CCc1cccc(CC)c1N(COC)C(=O)CCl [prior art, reference compound] : is its % damage no less than 10%?
Result: class 0
